Recorded values, source patent US10647727B2.

Biological target: human PDE2A1 (Homo sapiens (Human), UniProt O00408)
Sequence (O00408 other isoform, or with tags, fused parts or gaps): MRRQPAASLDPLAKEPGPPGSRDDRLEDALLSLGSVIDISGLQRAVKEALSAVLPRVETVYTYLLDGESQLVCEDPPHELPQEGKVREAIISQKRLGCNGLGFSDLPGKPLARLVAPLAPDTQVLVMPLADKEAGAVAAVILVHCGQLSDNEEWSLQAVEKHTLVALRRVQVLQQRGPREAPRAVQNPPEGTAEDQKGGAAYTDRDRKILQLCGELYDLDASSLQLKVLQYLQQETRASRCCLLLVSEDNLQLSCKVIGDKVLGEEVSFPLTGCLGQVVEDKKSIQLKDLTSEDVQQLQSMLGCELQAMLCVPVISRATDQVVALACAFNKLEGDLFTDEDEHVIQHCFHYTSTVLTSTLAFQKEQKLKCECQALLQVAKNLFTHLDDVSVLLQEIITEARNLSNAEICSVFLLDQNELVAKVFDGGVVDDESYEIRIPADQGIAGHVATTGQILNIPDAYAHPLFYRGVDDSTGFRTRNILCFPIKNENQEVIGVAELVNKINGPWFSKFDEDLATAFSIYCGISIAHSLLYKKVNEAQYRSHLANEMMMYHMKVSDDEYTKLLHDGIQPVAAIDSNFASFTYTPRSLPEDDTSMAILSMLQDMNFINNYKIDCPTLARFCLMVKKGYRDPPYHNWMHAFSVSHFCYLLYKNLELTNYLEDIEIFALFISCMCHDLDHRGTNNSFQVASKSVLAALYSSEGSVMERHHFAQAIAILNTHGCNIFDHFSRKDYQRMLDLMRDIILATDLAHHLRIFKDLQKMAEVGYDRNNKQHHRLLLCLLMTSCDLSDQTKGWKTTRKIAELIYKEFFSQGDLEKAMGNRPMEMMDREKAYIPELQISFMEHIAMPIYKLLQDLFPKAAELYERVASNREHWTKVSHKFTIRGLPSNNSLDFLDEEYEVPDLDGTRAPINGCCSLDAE
Test: biochemical
Type: biochemical
Settings: Lab B; read-out: Human PDE2 Ki (nM) Lab B
quantity measured: Ki (nM)
Number only, in nM; omit the unit.

Would you please look over these solved cases?
> print(dat)
                                  structure  recorded.value
1  Cc1nc(NC2(c3ccc(SC(F)(F)F)cc3)CC2)c2cnn(C)c2n1              16
2  Cc1nc(NC2(c3ccc(C(F)(F)F)c(F)c3)CC2)c2cnn(CC(F)(F)F)c2n1              76
3  Cc1nc(N(C)C2(c3ccc(C(F)(F)F)cc3)CC2)c2cnn(C)c2n1             4.9
4  Cc1nc(NC2(c3ccc(C(F)(F)F)cc3)CCC2)c2cnn(C)c2n1             430
5  Cc1cc(N[C@@H](c2ccc(C(F)(F)F)c(F)c2)C(C)(C)C)n2ncc(N)c2n1             580

IN: For human PDE2A1 (Homo sapiens (Human), UniProt O00408), give Ki of the listed compound: Cc1cc(NC2(c3ccc(C(F)(F)F)c(F)c3)CC2)n2nccc2n1
OUT: 199

* * *

Biological target: UniProt:O00408
Experiment: biochemical
Type: biochemical
Conditions: Lab B; read-out: Human PDE2 Ki (nM) Lab B
We label by threshold. Values of Ki strictly beneath 200 nM are condition met. Values of 200 nM and up are condition not met.

Consider the worked cases shown below.
> print(dat)
                                  structure     discrete.label
1  Cc1cc(NC2(c3ccc(C(F)(F)F)c(F)c3)CC2)n2ncc(N)c2n1  condition not met
2  Cc1cc(N[C@@H](c2ccc(C(F)(F)F)c(F)c2)C(C)(C)C)n2nccc2n1      condition met
3  Cc1nc(NC2(c3ccc(OC(F)(F)F)c(F)c3)CC2)c2cnn(C)c2n1      condition met

From here, focus on the item given below.
IN: Lab note: Ki threshold 200 nM. Does this molecule come in strictly under it? Cc1cc(N[C@@H](c2ccc(C(F)(F)F)c(F)c2)C(C)(C)C)n2ncc(C#N)c2n1
OUT: condition not met

* * *

# log10 of Ki listing for each entry below
Biological target: Rhesus PDE2A3 (Macaca mulatta)
Experiment: PDE2 fluorescence polarization (IMAP FP) inhibition assay, rhesus enzyme
Format: biochemical, rhesus macaque
Settings: Lab B; read-out: Rhesus PDE2 Ki (nM) Lab B
A value of 2 here means Ki of 100 in nM, since values are log10.

> print(dat)
                                  structure  recorded.value
1  CN(c1nc(Cl)nc2c1cnn2C)C1(c2ccc(C(F)(F)F)cc2)CC1            0.78
2  Cc1nc(NC2(c3ccc(SC(F)(F)F)cc3)CC2)c2cnn(C)c2n1            1.30

IN: # return recorded log10 of Ki for entry Cc1nc(NC2(c3ccc(C(F)(F)F)c(F)c3)CC2)c2cnn(CC(F)(F)F)c2n1
OUT: 1.99

IN: # return recorded log10 of Ki for entry Cc1nc(NC2(c3ccc(OC(F)(F)F)c(F)c3)CC2)c2cnn(C)c2n1
OUT: 1.74

IN: # return recorded log10 of Ki for entry Cc1nc(NC2(c3ccc(C(F)(F)F)cc3)CCC2)c2cnn(C)c2n1
OUT: 2.55

IN: # return recorded log10 of Ki for entry Cn1ncc2c(NC3(c4ccc(C(F)(F)F)cc4)CC3)nc(C(F)(F)F)nc21
OUT: 1.90

IN: # return recorded log10 of Ki for entry Cn1ncc2c(NC3(c4ccc(C(F)(F)F)cc4)CC3)nc(C#N)nc21
OUT: 1.67

* * *

Biological target: human PDE2A1 (Homo sapiens (Human))
Assay: biochemical
Format: biochemical
Conditions: Lab B; read-out: Human PDE2 Ki (nM) Lab B
quantity measured: Ki

> print(dat)
                                  structure  recorded.value
1  Cn1ncc2c(NC3(c4ccc(C(F)(F)F)cc4)CC3)nc(C(F)(F)F)nc21           67 nM
2  CN(c1nc(Cl)nc2c1cnn2C)C1(c2ccc(C(F)(F)F)cc2)CC1          3.8 nM
3  Cc1cc(NC2(c3ccc(C(F)(F)F)c(F)c3)CC2)n2nc(CO)cc2n1          169 nM
4  Cc1cc(N[C@@H](c2ccc(C(F)(F)F)c(F)c2)C(C)(C)C)n2ccnc2n1           51 nM
5  Cc1nc(NC2(c3ccc(C(F)(F)F)c(F)c3)CC2)c2ncn(C)c2n1          115 nM

IN: # return recorded Ki for entry Cn1ncc2c(NC3(c4ccc(C(F)(F)F)cc4)CC3)nc(C#N)nc21
OUT: 39 nM

IN: # return recorded Ki for entry Cc1nc(N[C@@H](c2ccc(C(F)(F)F)c(F)c2)C(C)(C)C)c2nc[nH]c2n1
OUT: 566 nM

IN: # return recorded Ki for entry Cc1cc(NC2(c3ccc(C(F)(F)F)c(F)c3)CC2)n2ncc(CO)c2n1
OUT: 682 nM

* * *

# Ki listing for each entry below
Target: human PDE2A1 (Homo sapiens (Human))
Test: biochemical
Type: biochemical
Details: read-out: Human PDE2 Ki (nM) Lab B
Number only, in nM; omit the unit.

> print(dat)
                                   molecule  quantity.measured  unit.annotation  recorded.value
1  CC(C)(O)C(Nc1nc(C(F)(F)F)cc2nccn12)c1ccc(C(F)(F)F)c(F)c1 (single isomer, unassigned) [Example 33]                 Ki               nM            1330

Next, consider the following molecule.
IN: # return recorded Ki for entry Cc1cc(NC2(c3ccc(C(F)(F)F)c(F)c3)CC2)n2ccnc2n1
OUT: 55

* * *

Target: Rhesus PDE2A3 (Macaca mulatta, UniProt B3VTJ2)
Sequence (B3VTJ2 1-941): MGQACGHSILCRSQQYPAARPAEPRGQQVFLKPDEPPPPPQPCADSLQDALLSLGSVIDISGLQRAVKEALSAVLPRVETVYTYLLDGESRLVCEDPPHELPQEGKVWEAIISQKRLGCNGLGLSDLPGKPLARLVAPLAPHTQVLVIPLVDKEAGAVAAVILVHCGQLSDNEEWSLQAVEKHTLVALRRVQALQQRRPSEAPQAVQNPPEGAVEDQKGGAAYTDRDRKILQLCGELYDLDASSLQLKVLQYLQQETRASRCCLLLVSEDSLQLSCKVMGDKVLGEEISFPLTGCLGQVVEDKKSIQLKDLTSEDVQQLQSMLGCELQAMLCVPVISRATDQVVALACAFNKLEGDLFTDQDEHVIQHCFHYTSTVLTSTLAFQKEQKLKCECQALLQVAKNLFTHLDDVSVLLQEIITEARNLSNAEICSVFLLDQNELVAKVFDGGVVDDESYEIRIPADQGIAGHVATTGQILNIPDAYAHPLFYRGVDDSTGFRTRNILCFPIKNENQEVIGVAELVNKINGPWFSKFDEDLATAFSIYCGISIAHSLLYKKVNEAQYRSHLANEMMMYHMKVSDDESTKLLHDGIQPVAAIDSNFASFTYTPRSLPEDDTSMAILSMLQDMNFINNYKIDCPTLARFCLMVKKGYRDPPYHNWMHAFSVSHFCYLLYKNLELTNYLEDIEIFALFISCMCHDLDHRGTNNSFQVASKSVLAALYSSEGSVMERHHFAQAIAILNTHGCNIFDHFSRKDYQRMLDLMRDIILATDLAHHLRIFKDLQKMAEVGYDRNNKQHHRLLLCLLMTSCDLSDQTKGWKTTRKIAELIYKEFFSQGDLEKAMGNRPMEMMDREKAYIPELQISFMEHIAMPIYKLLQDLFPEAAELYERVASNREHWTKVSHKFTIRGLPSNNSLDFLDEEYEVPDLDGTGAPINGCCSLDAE
Experiment: PDE2 fluorescence polarization (IMAP FP) inhibition assay, rhesus enzyme
Type: biochemical, rhesus macaque
Conditions: Lab A; read-out: Rhesus PDE2 Ki (nM) Lab A
Entries are sorted into classes by Ki as follows: 0 = under 200 nM, 1 = from 200 nM up to 1000 nM, 2 = 1000 nM and over

Consider the worked cases shown below.
> print(dat)
                                   compound                           target.of.assay  discrete.label
1  CCN(Cc1ccc(C(F)(F)F)cc1)c1nc(Cl)nc2c1cnn2C  Rhesus PDE2A3 (Macaca mulatta, UniProt B3VTJ2)               1
2  CC(Nc1nc(Cl)nc2c1cnn2C)c1ccc(-n2cccn2)cc1 (stereo not drawn)  Rhesus PDE2A3 (Macaca mulatta, UniProt B3VTJ2)               2
3  C[C@H](c1ccc(C(F)(F)F)cc1)N(C)c1nc(Cl)nc2c1cnn2C  Rhesus PDE2A3 (Macaca mulatta, UniProt B3VTJ2)               0
4  CN(c1nc(Cl)nc2c1cnn2C)C1(c2ccc(C(F)(F)F)cc2)CC1  Rhesus PDE2A3 (Macaca mulatta, UniProt B3VTJ2)               0

IN: Sort CC(Nc1nc(Cl)nc2c1cnn2C(C)C)c1ccc(C(F)(F)F)cc1 (stereo not drawn) into one of the categories.
OUT: 2

IN: Sort CC(C)c1ccc(C(C)Nc2nc(Cl)nc3c2cnn3C)cc1 (stereo not drawn) into one of the categories.
OUT: 1

IN: Sort CCC(Nc1nc(Cl)nc2c1cnn2C)c1ccc(C(C)C)cc1 (stereo not drawn) into one of the categories.
OUT: 1

* * *

Biological target: human PDE2A1 (Homo sapiens (Human))
Test: biochemical
Assay type: biochemical
Conditions: Lab B; read-out: Human PDE2 Ki (nM) Lab B
quantity measured: Ki (nM)
Number only, in nM; omit the unit.

Would you please look over these solved cases?
> print(dat)
                                   compound  unit.annotation  recorded.value
1  Cc1nc(NC2(c3ccc(C(F)(F)F)c(F)c3)CC2)c2nc[nH]c2n1 [Example 36]               nM             206
2  Cc1nc(OC2(c3ccc(C(F)(F)F)cc3)CC2)c2cnn(C)c2n1 [Example 30]               nM              32
3  Cc1nc(NC2(c3ccc(C(F)(F)F)cc3F)CC2)c2cnn(C)c2n1 [Example 24]               nM              29

Next, consider the following compound.
IN: # return recorded Ki for entry Cc1cc(NC2(c3ccc(C(F)(F)F)c(F)c3)CC2)n2ncc(C#N)c2n1 [Example 39]
OUT: 503
